# TARGET_OF_ASSAY: KOR receptor (Homo sapiens, UniProt P41145)
# Construct: purchased Eurofins Cerep (SafetyScreen44), recognised from the panel format
# Sequence (P41145 whole entry): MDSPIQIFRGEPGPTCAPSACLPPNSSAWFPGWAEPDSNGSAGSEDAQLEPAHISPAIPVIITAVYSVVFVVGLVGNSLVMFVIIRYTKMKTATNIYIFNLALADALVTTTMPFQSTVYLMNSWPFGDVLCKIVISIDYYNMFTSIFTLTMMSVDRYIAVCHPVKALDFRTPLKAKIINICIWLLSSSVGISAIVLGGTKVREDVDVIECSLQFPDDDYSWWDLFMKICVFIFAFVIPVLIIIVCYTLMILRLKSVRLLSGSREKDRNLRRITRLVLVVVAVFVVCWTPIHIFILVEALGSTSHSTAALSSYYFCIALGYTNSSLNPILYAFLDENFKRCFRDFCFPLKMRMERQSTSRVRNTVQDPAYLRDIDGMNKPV
# PROTOCOL_DETAILS: Eurofins CEREP panel, KOR
# Format: binding
# REPORTED_CONDITIONS: kappa (h) (KOP) (agonist radioligand); test compound concentration 10 uM
MEASUREMENT_LABEL: perc_inhibition (% inhibition of the binding of a ligand specific for each target) (%)
Just the number please, in %, no unit attached.

Completed entries (count: 2):
COMPOUND | READING_UNIT | REPORTED_RESULT
COc1ccc([C@H](Cc2nnn[nH]2)NC(=O)c2ncnc3[nH]ccc23)cc1 [ASAP-0015381] | % | 2
C[C@H](C(=O)O)[C@@H](NC(=O)c1ncnc2[nH]ccc12)c1ccc(Br)cc1 [ASAP-0014722] | % | 2

--- query ---
Problem: Please state recorded perc_inhibition (% inhibition of the binding of a ligand specific for each target) (tested on KOR receptor (Homo sapiens, UniProt P41145)) of CC(C)[C@H](Nc1ncnc2[nH]ccc12)c1ccc2c(c1)S(=O)(=O)CCC2 [ASAP-0008674]
Result: 84

###

# PROTOCOL_DETAILS: in vitro
# Design: Cytotoxicity in iPSC-derived pneumocytes, CC50
# REPORTED_CONDITIONS: human, ipsc-derived pneumocytes; ASAP-0008327-001=ASAP-0012315-001; read-out: 50.0
MEASUREMENT_LABEL: CC50

Problem: Which value of CC50 has been reported for CC(C)[C@@H](Nc1ncnc2[nH]c(-c3cnn(CC(N)=O)c3)cc12)c1ccc2c(n1)OCCO2 (single isomer, unassigned) [ASAP-0012315] in the records?
Result: > 50 µM

###

# PROTOCOL_DETAILS: Permeability Papp (AB) MDR1/MDCKII
# REPORTED_CONDITIONS: In vitro MDR1-MDCKII permeability, recovery B to A, no inhibitor
MEASUREMENT_LABEL: perc_recovery_b_to_a_mean
Give the value; after it, write the unit.

Problem: Which value of perc_recovery_b_to_a_mean has been reported for CNC(=O)c1cc2c(N[C@@H](c3ccc4c(c3)S(=O)(=O)CCC4)C(C)C)ncnc2[nH]1 (single isomer, unassigned) in the records?
Result: 68.8%

Problem: Which value of perc_recovery_b_to_a_mean has been reported for COc1ccc([C@H](Cc2nnn[nH]2)NC(=O)c2ncnc3[nH]ccc23)cc1 in the records?
Result: 84.4%

Problem: Which value of perc_recovery_b_to_a_mean has been reported for Cn1ncc(-c2cc3c(N[C@@H](c4ccc5c(n4)OCCO5)C(C)(C)C)ncnc3[nH]2)c1C#N in the records?
Result: 101.0%

Problem: Which value of perc_recovery_b_to_a_mean has been reported for CC(C)[C@@H](Nc1ncnc2[nH]c(-c3cnn(C)c3C#N)cc12)c1ccc2c(c1)S(=O)(=O)CCC2 (single isomer, unassigned) in the records?
Result: 96.5%

Problem: Which value of perc_recovery_b_to_a_mean has been reported for CC(C)[C@@H](Nc1ncnc2[nH]c(C(=O)N[C@H]3CCN(C)C3)cc12)c1ccc2c(c1)S(=O)(=O)CCC2 (single isomer, unassigned) in the records?
Result: 66.7%

Problem: Which value of perc_recovery_b_to_a_mean has been reported for C[C@H](C(=O)O)[C@@H](NC(=O)c1ncnc2[nH]ccc12)c1ccc(Br)cc1 in the records?
Result: 87.2%

###

# PROTOCOL_DETAILS: Permeability Papp (AB) MDR1/MDCKII
# REPORTED_CONDITIONS: In vitro MDR1-MDCKII permeability, recovery A to B, mean
In this section we review reported perc_recovery_a_to_b_mean values for a set of molecules.
Just the number please, in %, no unit attached.

MOLECULE | perc_recovery_a_to_b_mean [%]
CNCc1cc(-c2cc3c(N[C@H](c4ccc5c(c4)S(=O)(=O)CCC5)C(C)C)ncnc3[nH]2)co1 (single isomer, unassigned) | 63.8
CC(C)[C@H](Nc1ncnc2[nH]c(-c3cnn(CC(N)=O)c3)cc12)c1ccc2c(c1)S(=O)(=O)CCC2 (single isomer, unassigned) [ASAP-0011428] | 85.9
CC(C)(C)[C@H](Nc1ncnc2[nH]c(-c3cnn(CC(N)=O)c3)cc12)c1ccc2c(c1)OCCO2 (racemic) | 94.7

Problem: Which value of perc_recovery_a_to_b_mean has been reported for CC(C)[C@@H](Nc1ncnc2[nH]c(-c3cnn(C)c3)cc12)c1ccc2c(c1)S(=O)(=O)CCC2 in the records?
Result: 85.6

Problem: Which value of perc_recovery_a_to_b_mean has been reported for CNC(=O)Cn1cc(-c2cc3c(N[C@H](c4ccc5c(c4)S(=O)(=O)CCC5)C(C)C)ncnc3[nH]2)cn1 (single isomer, unassigned) in the records?
Result: 65.1

###

# PROTOCOL_DETAILS: Protein binding
# Format: in vitro ADME
# REPORTED_CONDITIONS: In vitro human plasma protein binding
MEASUREMENT_LABEL: fu
Enter the number alone.

Completed entries (count: 3):
COMPOUND | fu
CC(C)[C@@H](Nc1ncnc2[nH]c(-c3cnn(C)c3C#N)cc12)c1ccc2c(n1)OCCO2 | 0.005
C[C@H](C(=O)O)[C@@H](NC(=O)c1ncnc2[nH]ccc12)c1ccc(Br)cc1 | 0.026
CNCc1cc(-c2cc3c(N[C@@H](c4ccc5c(c4)S(=O)(=O)CCC5)C(C)C)ncnc3[nH]2)co1 | 0.08

Problem: Which value of fu has been reported for CC(C)C(Nc1ncnc2[nH]c(C(=O)NC3CCN(C)C3)cc12)c1ccc2c(c1)S(=O)(=O)CCC2 (centres unmarked) in the records?
Result: 0.271

Problem: Which value of fu has been reported for CC(C)[C@H](Nc1ncnc2[nH]c(-c3cnn(C)c3C#N)cc12)c1ccc2c(n1)OCCO2 in the records?
Result: 0.005

Problem: Which value of fu has been reported for CC(C)[C@H](Nc1ncnc2[nH]ccc12)c1ccc2c(c1)S(=O)(=O)CCC2 in the records?
Result: 0.144

Problem: Which value of fu has been reported for COc1ccc([C@H](Cc2nnn[nH]2)NC(=O)c2ncnc3[nH]ccc23)cc1 in the records?
Result: 0.01

Problem: Which value of fu has been reported for Cn1ncc(-c2cc3c(N[C@@H](c4ccc5c(n4)OCCO5)C(C)(C)C)ncnc3[nH]2)c1C#N in the records?
Result: 0.006

###

# PROTOCOL_DETAILS: Permeability Papp (AB) MDR1/MDCKII
# REPORTED_CONDITIONS: MDR1-MDCKII, recovery A to B, with inhibitor Cyclosporin A
Short version: perc_recovery_a_to_b_inhibitor_mean at least 80% is MET, less is NOT MET.

Some solved cases for reference:
COMPOUND | CATEGORY_LABEL
CC(C)[C@@H](Nc1ncnc2[nH]ccc12)c1ccc2c(c1)S(=O)(=O)CCC2 (single isomer, unassigned) | NOT MET
CCNC(=O)c1cc2c(N[C@@H](c3ccc4c(c3)S(=O)(=O)CCO4)C(C)C)ncnc2[nH]1 (racemic) | MET
CC(C)[C@@H](Nc1ncnc2[nH]c(-c3cnn(C)c3)cc12)c1ccc2c(c1)S(=O)(=O)CCC2 (single isomer, unassigned) | NOT MET
CC(C)[C@H](Nc1ncnc2[nH]c(-c3cnn(C)c3C#N)cc12)c1ccc2c(n1)OCCO2 | NOT MET
Cn1ncc(-c2cc3c(N[C@@H](c4ccc5c(n4)OCCO5)C(C)(C)C)ncnc3[nH]2)c1C#N | NOT MET

Problem: Hi, just wondering whether COc1ccc([C@H](Cc2nnn[nH]2)NC(=O)c2ncnc3[nH]ccc23)cc1 shows perc_recovery_a_to_b_inhibitor_mean of 80% or higher.
Result: MET

Problem: Hi, just wondering whether CC(C)[C@@H](Nc1ncnc2[nH]c(-c3cnn(CC(N)=O)c3)cc12)c1ccc2c(n1)OCCO2 (single isomer, unassigned) shows perc_recovery_a_to_b_inhibitor_mean of 80% or higher.
Result: NOT MET

Problem: Hi, just wondering whether CC(C)[C@H](Nc1ncnc2[nH]ccc12)c1ccc2c(c1)S(=O)(=O)CCC2 shows perc_recovery_a_to_b_inhibitor_mean of 80% or higher.
Result: MET

###

# PROTOCOL_DETAILS: Protein binding
# Assay type: in vitro ADME
# REPORTED_CONDITIONS: In vitro human plasma protein binding
In this section we review reported perc_bound values for a set of compounds.

Completed entries (count: 5):
COMPOUND | MEASUREMENT_LABEL | REPORTED_RESULT
CC(C)[C@H](Nc1ncnc2[nH]c(-c3cnn(C)c3C#N)cc12)c1ccc2c(n1)OCCO2 [ASAP-0010715] | perc_bound | 99.5%
CC(C)[C@H](Nc1ncnc2[nH]ccc12)c1ccc2c(c1)S(=O)(=O)CCC2 [ASAP-0008674] | perc_bound | 85.6%
CNCc1cc(-c2cc3c(N[C@@H](c4ccc5c(c4)S(=O)(=O)CCC5)C(C)C)ncnc3[nH]2)co1 [ASAP-0011176] | perc_bound | 92.0%
CC(C)[C@@H](Nc1ncnc2[nH]c(-c3cnn(C)c3C#N)cc12)c1ccc2c(n1)OCCO2 [ASAP-0010716] | perc_bound | 99.5%
Cn1ncc(-c2cc3c(N[C@@H](c4ccc5c(n4)OCCO5)C(C)(C)C)ncnc3[nH]2)c1C#N [ASAP-0011221] | perc_bound | 99.4%

Problem: Which value of perc_bound has been reported for C[C@H](C(=O)O)[C@@H](NC(=O)c1ncnc2[nH]ccc12)c1ccc(Br)cc1 [ASAP-0014722] in the records?
Result: 97.4%

Problem: Which value of perc_bound has been reported for COc1ccc([C@H](Cc2nnn[nH]2)NC(=O)c2ncnc3[nH]ccc23)cc1 [ASAP-0015381] in the records?
Result: 99.0%
